This listing pairs compounds with measured AC50.
- Assayed System: POLγA:G848S (Homo sapiens, UniProt P54098, G848S)
- Sequence (P54098 1-1239 G848S): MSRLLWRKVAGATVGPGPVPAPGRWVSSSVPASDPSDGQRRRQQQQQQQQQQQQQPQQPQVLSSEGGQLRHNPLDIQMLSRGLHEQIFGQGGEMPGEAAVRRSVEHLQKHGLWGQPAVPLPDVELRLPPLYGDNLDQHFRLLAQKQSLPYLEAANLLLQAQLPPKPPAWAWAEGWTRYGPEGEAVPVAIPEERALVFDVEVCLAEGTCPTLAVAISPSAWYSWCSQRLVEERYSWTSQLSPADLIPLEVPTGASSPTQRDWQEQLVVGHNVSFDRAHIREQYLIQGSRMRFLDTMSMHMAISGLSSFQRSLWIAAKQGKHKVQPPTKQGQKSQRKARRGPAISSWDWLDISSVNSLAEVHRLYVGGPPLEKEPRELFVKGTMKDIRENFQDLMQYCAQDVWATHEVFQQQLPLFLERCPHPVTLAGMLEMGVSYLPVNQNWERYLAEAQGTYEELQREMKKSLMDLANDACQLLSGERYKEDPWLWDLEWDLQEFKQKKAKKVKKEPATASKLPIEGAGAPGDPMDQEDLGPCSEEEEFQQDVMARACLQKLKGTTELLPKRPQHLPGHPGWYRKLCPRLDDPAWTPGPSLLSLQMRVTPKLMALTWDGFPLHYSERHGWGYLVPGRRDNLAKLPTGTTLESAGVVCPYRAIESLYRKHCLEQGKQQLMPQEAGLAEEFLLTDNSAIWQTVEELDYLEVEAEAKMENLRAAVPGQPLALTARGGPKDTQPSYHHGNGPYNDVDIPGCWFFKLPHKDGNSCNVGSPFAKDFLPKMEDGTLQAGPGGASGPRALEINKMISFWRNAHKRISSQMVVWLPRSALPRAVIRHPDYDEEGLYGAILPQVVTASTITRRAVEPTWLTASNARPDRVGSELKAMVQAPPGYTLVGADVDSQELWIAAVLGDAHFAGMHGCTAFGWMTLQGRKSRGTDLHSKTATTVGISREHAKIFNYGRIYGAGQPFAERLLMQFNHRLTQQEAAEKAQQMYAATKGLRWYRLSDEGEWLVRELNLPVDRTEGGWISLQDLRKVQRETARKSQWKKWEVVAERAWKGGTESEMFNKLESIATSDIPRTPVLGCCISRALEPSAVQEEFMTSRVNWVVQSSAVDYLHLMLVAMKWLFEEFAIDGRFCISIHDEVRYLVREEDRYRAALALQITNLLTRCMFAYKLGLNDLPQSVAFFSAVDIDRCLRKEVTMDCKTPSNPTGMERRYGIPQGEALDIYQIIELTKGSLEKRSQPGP
- Sequence (Q9UHN1 1-485 partner): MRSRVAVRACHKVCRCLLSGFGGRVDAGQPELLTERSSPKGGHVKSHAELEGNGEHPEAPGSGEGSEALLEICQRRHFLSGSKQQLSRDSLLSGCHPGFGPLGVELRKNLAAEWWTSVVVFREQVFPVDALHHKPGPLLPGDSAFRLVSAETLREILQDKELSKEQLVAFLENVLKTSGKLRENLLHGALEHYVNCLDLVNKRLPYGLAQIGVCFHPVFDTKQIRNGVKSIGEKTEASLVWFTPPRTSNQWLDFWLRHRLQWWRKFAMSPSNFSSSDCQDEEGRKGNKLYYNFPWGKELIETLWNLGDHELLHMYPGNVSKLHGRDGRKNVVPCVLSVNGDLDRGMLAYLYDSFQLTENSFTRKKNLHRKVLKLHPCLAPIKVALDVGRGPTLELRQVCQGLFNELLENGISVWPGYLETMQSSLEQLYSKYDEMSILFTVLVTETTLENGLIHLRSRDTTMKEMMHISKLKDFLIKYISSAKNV
- Measurement Notes: DNA polymerization assay, POLγA:G848S mutant
- Type: biochemical
- Study Conditions: stimulation of polymerase activity, primed M13mp18 ssDNA, 37° C. 2 hours; read-out: G848S AC50

{"Smiles": "Cc1cc(S(=O)(=O)Nc2cn(Cc3ccccc3)cn2)c(C)cc1Cl", "AC50": "> 100 µM"}
{"Smiles": "Cc1cc(S(=O)(=O)Nc2cnn(-c3ccccc3)n2)c(C)cc1Cl", "AC50": "> 10 µM"}
{"Smiles": "Cc1ccc(C)c(S(=O)(=O)Nc2csc(-c3ccccc3)n2)c1", "AC50": "1 µM"}
{"Smiles": "Cc1cc(S(=O)(=O)Nc2cc(F)cc(-c3nccs3)c2)c(C)cc1Cl", "AC50": "> 100 µM"}
{"Smiles": "O=S(=O)(Nc1csc(-c2ccccc2)n1)c1cccc2nccnc12", "AC50": "> 100 µM"}

Reference source for all entries: patent US20260138961A1
